- Tested on: HEK-293T
- test.details: Multiplex assay against HEK293T
- Type: toxicity, cell-based
- cond: human, 48 h, 1 µM, compound concentration 1 uM, replicate 1
observation.type: Total Cell Count

[
  {
    "compound": "C=CC(=O)Nc1ccc2ncnc(Nc3ccc(OCc4cccc(F)c4)c(Cl)c3)c2c1.Cc1ccc(S(=O)(=O)O)cc1",
    "assay.result": 430
  },
  {
    "compound": "Cn1cc(-c2[nH]c3cc(NC(=O)[C@H](N)C4CCCCC4)cc4c3c2C=NNC4=O)cn1",
    "assay.result": 373
  },
  {
    "compound": "CC(C)(O)CNc1ncc(-c2ccnc(Nc3ccnc(Cl)c3)n2)c(CC2CC2)n1",
    "assay.result": 360
  },
  {
    "compound": "CN(C)CC#Cc1ccc(OCCCc2sc(N3CCc4cccc(C(=O)Nc5nc6ccccc6s5)c4C3)nc2C(=O)O)c(F)c1",
    "assay.result": 322
  },
  {
    "compound": "CNc1nc(NCc2ccc(NS(C)(=O)=O)cc2Cl)cc(-c2ccccn2)n1",
    "assay.result": 336
  },
  {
    "compound": "CN1CCCC(n2nc(Cc3ccc(Cl)cc3)c3ccccc3c2=O)CC1.Cl (configuration not stated) [AZELASTINE HYDROCHLORIDE]",
    "assay.result": 404
  },
  {
    "compound": "O=C1NCN(c2ccccc2)C12CCN(CCCOc1ccc(F)cc1)CC2 [SPIRAMIDE]",
    "assay.result": 484
  },
  {
    "compound": "CN1CCC[C@@H]1CCO[C@](C)(c1ccccc1)c1ccc(Cl)cc1.O=C(O)/C=C/C(=O)O [CLEMASTINE FUMARATE]",
    "assay.result": 276
  },
  {
    "compound": "Cc1[nH]c(/C=C2\\C(=O)Nc3ccc(S(=O)(=O)N(C)c4cccc(Cl)c4)cc32)c(C)c1C(=O)N1CCN(C)CC1",
    "assay.result": 246
  },
  {
    "compound": "Cc1csc2c(N[C@@H](C)CN3CCN(S(=O)(=O)c4ccc(Cl)c(Cl)c4)CC3)ncnc12",
    "assay.result": 240
  },
  {
    "compound": "Cc1nc(-c2ccc(-c3ccc(C(=O)N4CCc5cc6c(cc54)C4(CCN(C)CC4)CO6)cc3)c(C)c2)no1",
    "assay.result": 261
  },
  {
    "compound": "OC1(c2ccc(Cl)cc2)CCN(Cc2c[nH]c3ccccc23)CC1",
    "assay.result": 247
  },
  {
    "compound": "CN(C)C(=O)/C(C#N)=C/c1ccc(-c2nc3cnc4[nH]ccc4c3n2C2CCCCC2)o1",
    "assay.result": 381
  },
  {
    "compound": "CN(C)C(=O)N[C@H]1CC[C@H](CCN2CCN(c3cccc(Cl)c3Cl)CC2)CC1.Cl [CARIPRAZINE HYDROCHLORIDE]",
    "assay.result": 609
  },
  {
    "compound": "COc1cccc([C@@H](C)NCCCc2ccccc2Cl)c1.Cl [TECALCET HYDROCHLORIDE]",
    "assay.result": 698
  },
  {
    "compound": "Cc1cc(C)cc(-c2cnc3cc(Cl)c(-c4cccc(O)c4)cc3c2OCCCN)c1",
    "assay.result": 352
  },
  {
    "compound": "Cl.N#Cc1ccc2[nH]cc(CCCCN3CCN(c4ccc5oc(C(N)=O)cc5c4)CC3)c2c1 [VILAZODONE HYDROCHLORIDE]",
    "assay.result": 639
  }
]

The origin of these recorded values is ChEMBL document CHEMBL4689842.
